- ASSAY_PROTOCOL: protein stability index of a GFP-peptide fusion (yeast GPS) (PSI 1-4); higher = more stable; sorted into four equal gates, so the index is relative within each strain
- CONDITION_INFO: ubr1∆
OUTCOME_MEASURE: protein stability index
Give only the figure.

In [3]: df
Out[3]:
                       sequence_input  measured_value
0  KPALKVSKEGLYQLVDI [YMR129W/POM152]            3.02
1            FSWGRPADSTYGAYNTQ [PRE4]            3.04
2    IEEKLSSFSKKTLTEEV [YIL149C/MLP2]               3

[in] Given GRETILSNFNADINLEE [SIR3] , respond with its protein stability index.
[out] 2.99

[in] Indicate the recorded protein stability index value for this sequence: AGGPDMTTPQNISSSQQ [DSN1]
[out] 2.93

[in] Please give the documented protein stability index of VKVARLAGKYIPNLTAK [FAS1]
[out] 3.03

* * *

- ASSAY_PROTOCOL: protein stability index of a GFP-peptide fusion (yeast GPS) (PSI 1-4); higher = more stable; sorted into four equal gates, so the index is relative within each strain
- CONDITION_INFO: san1∆
OUTCOME_MEASURE: protein stability index
Hey, just send me the number, nothing else.

Example entries and their recorded answers appear below.
              sequence_input  measured_value
0  SPFGAYGEAPTSPGFGV [RPO21]            2.98
1   KAKRQINSGTNSANGSS [SSN3]            2.92
2   LFRIFSMSEEFKYVSVR [BRR2]            2.99

[in] Return value of protein stability index for input VSADDFVEEQNVYVLPK [PRP8] , no commentary.
[out] 3.07

[in] Dear colleague, please send me the reported protein stability index for DSKNTPNVFDKDSYVRI [YDL088C/ASM4] when you can.
[out] 3.06

[in] Please supply the value of reported protein stability index for the item IEKCLKASELKLALGIA [RPN2]
[out] 3

[in] Report protein stability index for TPATIVKKPTFTFGQST [YOR098C/NUP1]
[out] 3.09

* * *

Listed next: entries and their corresponding protein stability index.
- ASSAY_PROTOCOL: protein stability index of a GFP-peptide fusion (yeast GPS) (PSI 1-4); higher = more stable; sorted into four equal gates, so the index is relative within each strain
- CONDITION_INFO: pdr5∆
The answer should be a number; do not append a unit.

>>> df
             sequence_input          outcome_measure  measured_value
0  HLLRQTNAFLDSLTRAV [SNF2]  protein stability index             2.6

[in] Provide only the value of recorded protein stability index for WDLLPEPIRFLPNQFPL [SWI1]
[out] 2.58

[in] Supply reported protein stability index belonging to this sequence: LQAIDLLENPNCFFDVI [DIS3]
[out] 2.29

[in] State, in one line, measured protein stability index of QDDDDYVDTATAKRKSR [IRR1]
[out] 2.94

[in] Return the recorded protein stability index value; entry: TPGLTFNAIDLARHLPA [RPC82]
[out] 2.73

* * *

Recorded protein stability index, one value per entry.
- ASSAY_PROTOCOL: protein stability index of a GFP-peptide fusion (yeast GPS) (PSI 1-4); higher = more stable; sorted into four equal gates, so the index is relative within each strain
- CONDITION_INFO: san1∆
The response must contain the number and no unit.

Take a look at these entries with their results.
In [3]: df
Out[3]:
              sequence_input  measured_value
0   SQLDLFLRTMKLTSEET [GRR1]               3
1  ALQKGLKDLMDLCDVVE [RPC19]            2.92
2   YDTTPLLDTNSLEENAM [SKI6]            2.97

[in] Answer with the recorded protein stability index for the sequence listed here: PKVPVSAAATPSLNKTI [GAL11]
[out] 2.67

[in] Recall and state the measured protein stability index for PIPSKPTLFDLAFNYIT [SRP68] .
[out] 1.74
